- target_under_test: UniProt:Q99572
- procedure_summary: YO-PRO-1 dye uptake assay in U373 cells stably expressing P2X7
- Format: cell-based
- Parameters: The complete open reading frame of human P2X7 was amplified from Incyte clone 148057; expressed in transfected cells
- test_settings: dye uptake through P2X7, U373 cells, 300 μM BzATP, 5 μM YO-PRO-1, test compounds 30 nM to 3 μM; read-out: IC50
Structures can show the parent of a compound that is named as a salt.
endpoint_label: IC50 (nM)

# compound, value_reported
data = [
    ("Fc1ccc(CSC2=N[C@@H](c3ccccc3)[C@@H](c3ccccc3)N2)cc1", 300),
    ("CC(Cc1ccccc1)C1=N[C@@H](c2ccccc2)[C@@H](c2ccccc2)N1 (relative stereo) [trifluoroacetate]", 570),
    ("Fc1ccc(CNC2=N[C@@H](c3cccc(Cl)c3)[C@@H](c3cccc(Cl)c3)N2)cc1 [hydrochloride]", 318),
    ("CC(Oc1ccccc1)C1=N[C@@](C)(c2ccccc2)[C@@H](c2ccccc2)N1 (relative stereo) [trifluoroacetate]", 356),
    ("Fc1cc(CNC2=N[C@@H](c3ccccc3)[C@@H](c3ccccc3)N2)cc(F)c1F [hydrochloride]", 77),
]

A: Fc1cccc([C@H]2NC(Cc3ccccc3F)=N[C@H]2c2cccc(F)c2)c1 [trifluoroacetate]
B: c1ccc(SCC2=N[C@@H](c3ccccc3)[C@@H](c3ccccc3)N2)cc1 [trifluoroacetate]
[ask] Kindly identify the item with the lower IC50 figure among these two: A and B Write down the label attached to your selection.
[reply] B

###

- target_under_test: P2X7 (Homo sapiens)
- Sequence (Q99572 1-595): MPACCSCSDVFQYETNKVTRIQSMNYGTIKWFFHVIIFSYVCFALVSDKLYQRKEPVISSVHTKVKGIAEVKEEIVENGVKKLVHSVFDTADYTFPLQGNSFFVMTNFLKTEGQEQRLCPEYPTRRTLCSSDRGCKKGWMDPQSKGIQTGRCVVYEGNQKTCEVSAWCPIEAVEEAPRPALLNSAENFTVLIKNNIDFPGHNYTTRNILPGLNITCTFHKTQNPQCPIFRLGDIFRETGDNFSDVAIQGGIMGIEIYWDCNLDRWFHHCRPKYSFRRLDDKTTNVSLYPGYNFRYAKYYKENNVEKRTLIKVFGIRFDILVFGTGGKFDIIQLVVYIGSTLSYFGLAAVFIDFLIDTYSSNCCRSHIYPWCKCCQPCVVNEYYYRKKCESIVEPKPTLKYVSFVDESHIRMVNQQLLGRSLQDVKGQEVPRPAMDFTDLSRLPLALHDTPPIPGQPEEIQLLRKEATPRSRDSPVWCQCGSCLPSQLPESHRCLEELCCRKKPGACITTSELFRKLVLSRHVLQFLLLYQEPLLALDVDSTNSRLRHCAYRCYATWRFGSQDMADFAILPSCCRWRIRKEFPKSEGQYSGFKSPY
- procedure_summary: YO-PRO-1 dye uptake assay in U373 cells stably expressing P2X7
- Format: cell-based
- Design: The complete open reading frame of human P2X7 was amplified from Incyte clone 148057; expressed in transfected cells
- test_settings: dye uptake through P2X7, U373 cells, 300 μM BzATP, 5 μM YO-PRO-1, test compounds 30 nM to 3 μM; read-out: IC50
Structures can show the parent of a compound that is named as a salt.
endpoint_label: IC50 (nM)

Solved entries:
# molecule, IC50, nM
data = [
    ("c1ccc(COc2ccc(CSC3=N[C@@H](c4ccccc4)[C@@H](c4ccccc4)N3)cc2OCc2ccccc2)cc1 [hydrochloride]", 548),
    ("Fc1ccc(CC2=N[C@@H](c3ccccc3)[C@@H](c3ccccc3)N2)c(Cl)c1 [trifluoroacetate]", 120),
    ("Fc1cccc(CNC2=N[C@@H](c3ccccc3)[C@@H](c3ccccc3)N2)c1 [hydrochloride]", 89),
    ("Fc1ccc(CC2=N[C@@H](c3ccccc3)[C@@H](c3ccccc3)N2)cc1Cl [trifluoroacetate]", 13),
    ("c1ccc(COCC2=N[C@@H](c3ccccc3)[C@@H](c3ccccc3)N2)cc1", 325),
    ("Brc1ccccc1CSC1=N[C@@H](c2ccccc2)[C@@H](c2ccccc2)N1", 521),
]

a: Fc1ccc(CCNC2=N[C@@H](c3ccccc3)[C@@H](c3ccccc3)N2)cc1
b: c1ccc(C2N=C(C3Cc4ccccc4C3)NC2c2ccccc2)cc1 (centres unmarked) [trifluoroacetate]
[ask] Choose between a and b : whose measured IC50 value is numerically larger? Write down the label attached to your selection.
[reply] a

a: Fc1ccc(CCC2=N[C@@H](c3ccccc3)[C@@H](c3ccccc3)N2)cc1 [trifluoroacetate]
b: Clc1ccc([C@H]2NC(NCc3ccccc3)=N[C@H]2c2ccc(Cl)cc2)cc1 [hydrochloride]
[ask] Kindly identify the item with the lower IC50 figure among these two: a and b Write down the label attached to your selection.
[reply] a
